The reader will find reported TGI values listed item by item below.
System: K-562 leukemia
Experiment: NCI tumour cell line growth inhibition, 48 h

Here are 5 molecules together with their reported answers.
>>> readout_value("O=C(N[C@@H](c1ccccc1)[C@@H](O)C(=O)OCc1ccc([N+](=O)[O-])cc1)c1ccccc1")
"> 100 µM"
>>> readout_value("CC(C)(S)C(N)C(=O)O (configuration not stated)")
"> 5000 µM"
>>> readout_value("COC1(OC)CC2C(=O)N(Cc3ccccc3)C1C=C2S(=O)(=O)c1ccccc1 (configuration not stated)")
"63.2 µM"
>>> readout_value("Cc1cc(C2CC(O)C(CO)O2)c(F)cc1F (configuration not stated)")
"> 100 µM"
>>> readout_value("Cc1nn(C(=O)Cc2ccccc2)c2c1C(c1ccc(Cl)cc1)SC(N)=N2 (configuration not stated)")
"> 100 µM"

Q: Recorded TGI of COc1ccc2c(c1)nc1n2C(c2c(Cl)cccc2Cl)SC1 (configuration not stated) , please.
Ans: > 100 µM

Q: Endpoint output: TGI of CC(=O)N(CCc1ccccc1)C(C#N)c1ccccc1 (configuration not stated) . Value?
Ans: > 100 µM

====

Tested on: SK-MEL-2 melanoma
Assay: NCI tumour cell line growth inhibition, 48 h
VALUE KIND: GI50

Examples with answers:
>>> readout_value("O=C1NC(=O)/C(=C\\c2ccccc2)C2=C1CCCC2")
"7.72 µM"
>>> readout_value("O=C1NC(=NCCc2cccc(Cl)c2)S/C1=C\\c1ccc2ncccc2c1")
"> 25 µM"
>>> readout_value("O=C1NC(=O)C(c2cccc([N+](=O)[O-])c2)=C1Nc1cc(Cl)c(O)c(Cl)c1")
"> 19.8 µM"

API: the following record is the query input.
Q: Request body: readout GI50, system SK-MEL-2 melanoma, query COc1cc2c(c(OC)c1OC)-c1ncc3cc4c(cc3c1C2)OCO4 . Return the value.
Ans: 38.9 µM

====

Test system: DMS 273 small cell lung
Assay: NCI tumour cell line growth inhibition, 48 h
Entries annotated with measured TGI

Observe how each entry below is paired with its result.
>>> readout_value("O=S(=O)(c1ccccc1)C1CN2OC1(S(=O)(=O)c1ccccc1)CC2c1ccc(Br)cc1 (stereo not drawn)")
"> 100 µM"
>>> readout_value("Cc1nc([N+](=O)[O-])cn1CC(=N)N")
"> 100 µM"
>>> readout_value("Cc1c(/C=N/NC(=O)c2ccc(Cl)cc2)c(=O)n(-c2ccccc2)n1C")
"> 100 µM"
>>> readout_value("CC(C)C(=O)Nc1nc2c(ncn2C2OC(CO)C(O)C2O)c(=O)[nH]1 (stereo not drawn)")
"> 100 µM"
>>> readout_value("Cc1cc(NS(=O)(=O)c2ccc(Nc3c4ccccc4nc4c(C(=O)N5CCN(CCO)CC5)ccc(Cl)c34)cc2)no1")
"> 100 µM"

Q: For the molecule O=C(O)CC(NC(=O)CP(=O)(O)O)C(=O)O (stereo not drawn) , what TGI is on record?
Ans: > 9020 µM

Q: I have this molecule here, CCC1CCc2c(c(=O)oc3c2cc(OC)c2cccc(OC)c23)C1 (stereo not drawn) , and I need its recorded TGI.
Ans: > 100 µM

Q: So what's the measured TGI for this one? CN1C(=O)CSC1=S
Ans: > 100 µM

Q: What value of measured TGI is listed for O=[N+]([O-])c1ccc(N2N=C(c3ccc(NCc4nc5ccccc5[nH]4)cc3)CC2c2ccco2)cc1 (stereo not drawn) ?
Ans: 51.8 µM

Q: Returns the measured TGI for the input molecule. Input: CCCO/S(=N\S(=O)(=O)c1ccccc1)c1ccccc1[N+](=O)[O-] (stereo not drawn)
Ans: > 100 µM

Q: Consider the molecule Cc1ccc(NC(=O)CSc2nnc(-c3ccc(N=Cc4ccc(Cl)cc4)cc3)o2)cc1 and give its measured TGI.
Ans: > 100 µM

Q: Field request: TGI | item: CC(C)N(C(=O)C12C3C4C1(I)C1C2C3(I)C41C(=O)N(C(C)C)C(C)C)C(C)C (stereo not drawn)
Ans: > 100 µM

Q: Given the entry Cc1ccc(C)c(N=C2NC(=O)C(CC(=O)Nc3ccc(Cl)cc3Cl)S2)c1 (stereo not drawn) , report its measured TGI.
Ans: > 100 µM

Where these numbers come from: PubChem BioAssay (NCI)
